Numbers sourced from patent US20060235062A1.

Tested on: 3T3-L1 adipocytes
method: Glucose uptake in differentiated 3T3-L1 adipocytes
Assay type: cell-based
condition_description: 0.1 μM
measured_metric: glucose uptake activity in words

COC(=O)C(Cc1cc(OC)cc(OC)c1)c1ccc(Oc2ccc(CC3SC(=O)NC3=O)cc2)cc1 (stereo not shown) = devoid of activity
COC(=O)C(Cc1cc(OC)cc(OC)c1)c1ccc(Oc2ccc(C=C3SC(=O)NC3=O)cc2)cc1 (stereo not shown) = devoid of activity

---

study_target: Human PPAR-γ2 (Homo sapiens)
Construct: inserting the PPARγ2 cDNA coding region into pcDNA3.1+ vector; expressed in transfected cells; host or cells: HEK293 cells (ATCC)
Sequence (P37231 whole entry): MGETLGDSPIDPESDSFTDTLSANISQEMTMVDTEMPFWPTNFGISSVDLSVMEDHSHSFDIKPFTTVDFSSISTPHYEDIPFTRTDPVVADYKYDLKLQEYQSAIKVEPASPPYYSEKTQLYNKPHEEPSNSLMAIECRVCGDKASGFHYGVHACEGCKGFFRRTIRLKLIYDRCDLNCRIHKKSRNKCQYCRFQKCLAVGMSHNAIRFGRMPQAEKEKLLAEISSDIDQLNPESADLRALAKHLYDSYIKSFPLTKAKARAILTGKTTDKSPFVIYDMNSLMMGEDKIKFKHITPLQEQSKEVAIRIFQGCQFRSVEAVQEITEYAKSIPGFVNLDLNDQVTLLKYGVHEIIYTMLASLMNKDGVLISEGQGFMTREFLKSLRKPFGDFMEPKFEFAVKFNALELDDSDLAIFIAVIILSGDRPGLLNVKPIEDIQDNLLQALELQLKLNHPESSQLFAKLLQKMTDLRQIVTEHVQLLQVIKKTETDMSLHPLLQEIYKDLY
method: PPAR-gamma mediated transactivation of PPRE-luciferase reporter
Assay type: cell-based
condition_description: HEK293 cells, human PPAR-gamma2, ± SE, n=5, FIG. 24; read-out: EC50 for transactivation of PPRE-Luc reporter
measured_metric: pEC50
Give bare numbers, as −log10 of the molar value.

// pEC50 value for COC(=O)C(=Cc1cc(OC)cc(OC)c1)c1ccc(Oc2ccc(CC3SC(=O)NC3=O)cc2)cc1 (stereo not shown) : 6.55
